tested on: Aedes aegypti; assay: Co-toxicity assay with permethrin (topical); conditions: 2 μg synergist + permethrin; >+20 potentiation, <−20 antagonism, −20 to +20 additive
Property: 1-h knockdown Co-Toxicity Factor
Answer with the value's number alone.

The examples below pair each entry with its known result.
Molecule: CCCCOCCOCCOCc1cc2c(cc1CCC)OCO2 [PBO, piperonyl butoxide, reference compound]
Property: 1-h knockdown Co-Toxicity Factor
Experimental Result: −44.7
//
Molecule: C=C(C)[C@@H]1CC=C(C)C(=O)C1
Property: 1-h knockdown Co-Toxicity Factor
Experimental Result: 23.5
//
Molecule: CC12CCC(C1)C(C)(C)C2=O (stereo not shown)
Property: 1-h knockdown Co-Toxicity Factor
Experimental Result: 32.0

# ---- query molecule ----
Please report the measured 1-h knockdown Co-Toxicity Factor for "CC(C)[C@@H]1CC[C@@H](C)CC1=O"
19.8
